Please go through the items and note down their EC50.
test-system: human M4 muscarinic acetylcholine receptor (Homo sapiens, UniProt P08173)
Sequence (P08173 1-479): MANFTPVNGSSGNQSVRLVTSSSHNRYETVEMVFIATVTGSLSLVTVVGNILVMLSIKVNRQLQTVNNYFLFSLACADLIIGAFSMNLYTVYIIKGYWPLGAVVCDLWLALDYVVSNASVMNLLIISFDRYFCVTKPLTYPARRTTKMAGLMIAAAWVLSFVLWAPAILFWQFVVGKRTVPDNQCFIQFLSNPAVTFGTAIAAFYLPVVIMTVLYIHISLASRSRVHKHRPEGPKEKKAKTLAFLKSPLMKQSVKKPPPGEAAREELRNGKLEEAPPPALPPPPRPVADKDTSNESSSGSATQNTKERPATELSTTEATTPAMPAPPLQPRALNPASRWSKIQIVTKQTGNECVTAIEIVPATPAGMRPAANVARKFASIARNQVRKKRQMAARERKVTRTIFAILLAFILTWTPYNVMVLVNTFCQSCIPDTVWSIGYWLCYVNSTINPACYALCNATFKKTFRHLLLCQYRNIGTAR
method-summary: human FLIPR-based M4 PAM assay (calcium mobilization, CHO-K1 cells with human M4 receptor and Gαqi5)
experimental-context: inflection point (IP) of dose response curve, acetylcholine added at 20% of maximum response, read-out: M4 FLIPPR Hu IP
Give bare numbers, in nM.

N#Cc1ccc(-c2cnc(CC3(C(F)(F)F)CC3)o2)c(-c2ccn3ccnc3c2)n1: 82

Take each entry in turn and give its EC50.
1. Cc1cn2ccc(-c3nc(C#N)ccc3-c3cnc(CC(C)(C)C)o3)cc2n1
2. CC(Cc1ncc(-c2ccc(C#N)nc2-c2ccn3ccnc3c2)o1)C(F)F (stereo not shown)
3. CC(C)(C)Cc1ncc(-c2ccc(C(F)F)nc2-c2ccn3cnnc3c2)o1

-- reply
1. 69
2. 137
3. 86

----------
Please go through the items and note down their EC50.
test-system: human M4 muscarinic acetylcholine receptor (Homo sapiens)
method-summary: human FLIPR-based M4 PAM assay (calcium mobilization, CHO-K1 cells with human M4 receptor and Gαqi5)
experimental-context: inflection point (IP) of dose response curve, acetylcholine added at 20% of maximum response, read-out: M4 FLIPPR Hu IP
Please report the result as a number followed by the unit.

Cc1cn2ccc(-c3nc(C#N)ccc3-c3cnc(CCC(O)C(F)(F)F)o3)cc2n1 (stereo not drawn): 0.143 µM
N#Cc1ccc(-c2cnc(CC(F)C3CC3)o2)c(-c2ccc3cccnc3c2)n1 (single isomer, unassigned) [Example 70]: 0.06 µM

We next turn to a different compound, shown below.
-- ask For CC(C)(C)Cc1ncc(-c2ccc(C(F)F)nc2-c2ccc3cccnc3c2)o1 , what is its reported EC50?
-- reply 0.128 µM
